- Tested on: IGROV-1
- assay_details: NCI tumour cell line growth inhibition, 48 h
Calls of active or inactive are those of the source. Cut-off read from the data, not from the text of the source: active = GI50 up to about 1.1 µM and inactive = higher.
readout_label: GI50

query: Give GI50; test system IGROV-1; molecule Nc1ncnc2c1ncn2C1OC(CSCC(F)(F)F)C(O)C1O (stereo not given)
result: > 100 µM (inactive)

query: Retrieve GI50 on IGROV-1; query CCCNC1=C(C)C(=O)C2=C(C1=O)[C@H](COC(N)=O)[C@]1(OC)[C@@H]3N[C@@H]3CN21
result: 5.04 µM (inactive)

query: // output GI50; input COC(=O)/C=C(/C(=O)OC)c1cc2ccc3c([nH]c4ccccc43)c(C)c-2c1 ; system IGROV-1
result: 2.74 µM (inactive)

query: Provide the reported GI50 (system: IGROV-1) for CCOC(=O)c1ccc2c(=O)n3c(C(=O)OCC)ccc3c(=O)n12
result: > 100 µM (inactive)

query: State GI50 (IGROV-1) of Nc1ncnc2c1ncn2C1OC(C(=O)OCCO)C(O)C1O (stereo not given) .
result: > 100 µM (inactive)

###

Please go through the items and note down their GI50.
- Tested on: CAKI-1
- assay_details: NCI tumour cell line growth inhibition, 48 h
Activity calls are given as the source filed them. Rule as the data show it: active = GI50 up to about 1.1 µM and inactive = higher.

query: Give reported GI50 value for O=c1c2cc(Cl)cc(Cl)c2oc2nc3n(c(=O)c12)CCCS3
result: > 100 µM (inactive)

query: Recall and state the measured GI50 for COc1ccc(C(=O)C(C(=O)CC(=O)Nc2cccc(C(F)(F)F)c2)c2ccc(OC)cc2)cc1 (stereo not given) .
result: > 100 µM (inactive)

query: Kindly indicate its recorded GI50. Item: Cc1ccc(NC(=O)c2cc(S(=O)(=O)N3CCNNC3=O)c(S)cc2Cl)cc1
result: > 100 µM (inactive)

query: Name the recorded GI50 of the item Cc1cccc(=O)c([O-])c1.Cc1cccc(=O)c([O-])c1.[Bi+3].[Cl-] in your answer.
result: 15.5 µM (inactive)

query: Determine its reported GI50: NNC(=O)c1ccc[n+](CCc2ccccc2)c1
result: > 100 µM (inactive)

###

- Test system: SF-539
- assay_details: NCI tumour cell line growth inhibition, 48 h
Active and inactive are the calls of the source. No stated cut-off is given here; in the data, active = GI50 up to about 1.1 µM and inactive = higher.
Your reply should match one of these outcome classes. 1 (active), 0 (inactive)

query: For Oc1ccc([C@H]2c3c(O)cc(O)cc3C3c4c(cc(O)cc4[C@@H]2[C@H]2c4cc(O)cc5c4C(c4cc(O)cc(O)c4[C@@H]2c2ccc(O)cc2)[C@@H](c2ccc(O)cc2)O5)O[C@@H]3c2ccc(O)cc2)cc1 (stereo partly specified) , which call appears in the assay record?
result: 1

query: Test call, this compound: COCCN(C(C)=O)C1CCC2(SCCS2)c2[nH]c3ccccc3c21 (stereo unspecified)
result: 0

query: For this compound, state the assay outcome: COc1ccc(C(=O)NCCN(C)C)c2nc3ccccc3nc12
result: 0

query: Hey, what did the test say about CC(C)NC(=O)OCc1c(COC(=O)NC(C)C)c(-c2cc[n+](COC(=O)C3CC3)cc2)n2c1CCC2 ?
result: 0

query: GET /call?item= O=C1CC2(CCC3=C(O2)c2ccccc2NC(=O)C3)C(=O)c2ccccc2N1 (stereo unspecified) returns the recorded outcome of this test.
result: 0

query: Kindly provide the recorded test outcome for the following compound: Cc1cccc(-c2cc(O)c3cc(C)cnc3n2)c1
result: 1

query: Hello, I am checking results. What call was entered for COC1OC(CO)C(O)C(NC(=O)N(C)N=O)C1O (stereo unspecified) ?
result: 0

query: Please share the test call associated with COC1=C2CC(C)CC(OC)C(OC(=O)CCCN)C(C)/C=C(\C)C(OC(N)=O)C(OC)/C=C\C=C(/C)C(=O)NC(=CC1=O)C2=O (stereo unspecified) .
result: 0

query: Which outcome was assigned to CN1CCN(CN2C(=O)C3C4C=CC(C3C2=O)C2C3C(=O)N(CN5CCN(C)CC5)C(=O)C3C42)CC1 (stereo unspecified) in this test?
result: 0

query: Recorded test outcome, item COC(=O)c1cc(NC(=O)c2cc(NC(=O)Cc3c[nH]c4ccccc34)cn2C)cn1C
result: 0

query: Test call for this compound, please: C[C@@H]1OC(=O)/C(=C\N(C)C)[C@H]2CC(=O)N(CCc3cn(S(=O)(=O)C(F)(F)F)c4ccccc34)C[C@H]12
result: 0

query: Field: outcome | Entry: CCOc1cc(/C=N\N(C)C)cc(/C=N\N(C)C)c1O
result: 0

query: Returns: the outcome recorded for O=C1CSC(c2ccc(Cl)cc2)N1c1ccc(Oc2ccc(Cl)cc2)c(Cl)c1 (stereo unspecified) in this assay.
result: 0

query: Short answer needed: outcome of this test for O=c1c2cc(Cl)cc(Cl)c2oc2nc3n(c(=O)c12)CCCS3 ?
result: 0

query: # outcome recorded in this test, key = N=C(N)/N=C(\N)Nc1cnccn1
result: 0

query: Called result for C=CC1(C)OC2(CCN(C(=O)OCC)CC2)OC1C (stereo unspecified)
result: 0

query: What outcome does the record of this test show for CC1CC(=O)Nc2ccccc2N1C(=O)CN1CCC(CCCCN(C)C)CC1 (stereo unspecified) ?
result: 0

query: Test call for this compound, please: COC(=O)c1ccccc1C1CN=NC12Cc1ccc3c(c1C2=O)CCC3 (stereo unspecified)
result: 0

query: Hi, sorry to bother you, what did the test record for CN1CCN(CC(=O)Nc2cccc3ccccc23)CC1 ?
result: 0

query: What classification did COc1ccc(OC)c(C2CCc3c(cnc4nc(N)nc(N)c34)C2)c1 (stereo unspecified) end up with in this test?
result: 0

query: GET /call?item= CSc1nc(C)c2c(n1)SCC2 returns the recorded outcome of this test.
result: 0

###

Would you mind telling me the reported GI50 of each entry?
- Tested on: OVCAR-5
- assay_details: NCI tumour cell line growth inhibition, 48 h
Calls of active or inactive are those of the source. No stated cut-off is given here; in the data, active = GI50 up to about 1.1 µM and inactive = higher.

query: # return recorded GI50 for input COc1c(O)cc2c(c1O)C(=O)C1=C(CCCC1)C2=O
result: 38.4 µM (inactive)

query: # return recorded GI50 for entry C=C1CCC(OC(C)=O)C2(C)C(OC(C)=O)CC3OC3(C)C2C(OC(C)=O)C2C(C)C(=O)OC2C1Cl (configuration not stated)
result: > 100 µM (inactive)

query: Return reported GI50. Input compound: CC1(C)C[C@H]2C3=CC[C@@H]4[C@@]5(C)CC[C@H](O)C(C)(C)[C@@H]5CC[C@@]4(C)[C@]3(C)C[C@@H](O)[C@@]23C[C@@H]1OC3=O
result: > 100 µM (inactive)

query: Using the record for Cc1nc(C)c(N2CCN(C(=O)NC(CCC(=O)O)C(=O)O)CC2)c(O)n1 (configuration not stated) , state its measured GI50.
result: > 100 µM (inactive)

query: Supply recorded GI50 for C/C=C/C(=O)Oc1cccc2cccnc12 here.
result: 16.5 µM (inactive)

query: Give the reported value of GI50 for this record: Cc1cccc(=O)c([O-])c1.Cc1cccc(=O)c([O-])c1.[Bi+3].[Cl-]
result: 14.9 µM (inactive)

query: Hello, please tell me recorded GI50 for this one: COc1cc(C2SCC(=O)N2c2cc(Cl)c(Cl)cc2Cl)cc(OC)c1OC (configuration not stated)
result: > 100 µM (inactive)

query: Please indicate GI50 recorded for Cc1nc(O)nc(N/N=C/c2ccc(Cl)c(Cl)c2)c1C(=O)Nc1ccc(Cl)c(Cl)c1
result: 26.5 µM (inactive)

query: Answer with reported GI50 of CCOC(=O)C1(C/C=C\CBr)CCCCCCC1=O (configuration not stated)
result: > 100 µM (inactive)

query: Kindly indicate its recorded GI50. Item: NNC(=S)N/N=C(\CCCC(=O)NCCc1ccccc1)CC(=O)c1ccccc1
result: > 100 µM (inactive)

query: Fill in GI50 for record C(/C=N/c1ccccc1)=C(/Nc1ccccc1)c1ccc2ccccc2c1
result: 2.51 µM (inactive)

query: Using known records, supply GI50 for O=P1(c2ccccc2)C2=CCC=CC2C(c2ccccc2)N1Cc1ccccc1 (configuration not stated)
result: > 100 µM (inactive)

query: Identify measured GI50 corresponding to SC[C@@H]1COC[C@H](CS)S1
result: > 100 µM (inactive)

query: For the compound O=C(O)c1ccccc1CC(Cc1ccc2c(c1)CCC2)C(=O)O (configuration not stated) , report GI50.
result: > 100 µM (inactive)

query: Note down GI50 recorded for O=C(O)c1cccc(S(=O)(=O)NN2C(=O)CSC2c2c(O)ccc3ccccc23)c1 (configuration not stated)
result: 79.3 µM (inactive)

query: For the compound O=C(O)[C@@H]1CCCN1 [PROLINE] , give its reported GI50.
result: > 100 µM (inactive)

query: Give reported GI50 value for CCOC(=O)c1c(N/C(S)=N/c2ccccc2)sc2c1CCOC2
result: 38.4 µM (inactive)

query: Using known records, supply GI50 for CN(C)CCNC(=O)c1cccc2nc3cc(Cl)ccc3nc12
result: 3.05 µM (inactive)

query: State, in one line, measured GI50 of CCOC(=O)[C@@H]1ON2O[C@H](OC3CCCCC3c3ccccc3)C[C@H]3OC(=O)[C@@H]1C32 (some centres not stated)
result: > 100 µM (inactive)

query: Fill in GI50 for record Nc1cc(S(=O)(=O)O)cc2ccc(S(=O)(=O)O)cc12
result: > 100 µM (inactive)

query: For the compound Cc1c(C(=O)C/C(=N/NC(=O)CC#N)C(N)=O)[n+]([O-])c2ccccc2[n+]1[O-] , give its measured GI50 value.
result: > 100 µM (inactive)

query: Name the recorded GI50 of the compound listed here: CC(C)(C)C1CCC2c3c([nH]c4ccccc34)C3C(=O)N(c4cc(Br)cc(Br)c4)C(=O)C3C2C1 (configuration not stated)
result: 31.6 µM (inactive)

query: Tell me its GI50 given Clc1cc2ccccc2c2ccccc12 as the entry.
result: > 100 µM (inactive)

query: Identify the reported GI50 for the following entry. COc1ccc(C2OC[C@H]3O[C@@H](OCc4ccccc4)[C@H](O)[C@@H](O)[C@@H]3O2)cc1 (some centres not stated)
result: > 100 µM (inactive)

query: Consider the compound CSc1[nH]cnc1C(N)=S . State its measured GI50.
result: > 100 µM (inactive)

query: Tell me GI50 reported for CCOC(=O)c1ccc2c(=O)n3c(C(=O)OCC)ccc3c(=O)n12
result: > 100 µM (inactive)

query: Give the value of GI50 reported for the following: CC(=O)OC1(C)C(=O)OC/C2=C/CN(C)CCC(OC(=O)C(O)(C(C)Cl)CC1C)C2=O.c1ccccc1 (configuration not stated)
result: > 100 µM (inactive)

query: Retrieve GI50 measured for OCC(O)COc1ccc(F)cc1 (configuration not stated) and print it.
result: > 100 µM (inactive)

query: For the compound COC1(OC)C2(Cl)C(Cl)=C(Cl)C1(Cl)C1C=CC=CC12 (configuration not stated) , give its reported GI50.
result: > 100 µM (inactive)

query: Specify reported GI50 for the compound shown: CCc1nnc(S)n1/N=C\c1ccc(-c2ccccc2Cl)o1
result: 64.6 µM (inactive)

query: # return recorded GI50 for entry Cc1ccc(Nc2n[nH]c(=S)s2)cc1C
result: > 100 µM (inactive)

query: Entry CC1(C)CC(/C=C2/OC(=O)c3ccccc32)=C(C(N)=O)C(=O)O1 needs its GI50 filled in; supply it.
result: > 100 µM (inactive)

query: State its GI50 for this compound: CCOC(=O)Cc1nn2c(=O)cc(C)nc2s1
result: > 100 µM (inactive)

query: Give me measured GI50, please, for this compound: O=C1CSC(c2ccc(Cl)cc2)N1c1ccc(Oc2ccc(Cl)cc2)c(Cl)c1 (configuration not stated)
result: 14.2 µM (inactive)

query: Answer with reported GI50 of COC(=O)c1cc(C)ccc1/C=C1\Cc2cc(C)c(C)cc2C1=O
result: > 100 µM (inactive)

query: For the compound CC1(C)[N+]([O-])=[N+]([O-])C1(C)Br (configuration not stated) , give its reported GI50.
result: > 100 µM (inactive)

query: Retrieve GI50 measured for CN(C)CCCC1c2ccccc2Oc2ccc(C(F)(F)F)cc21 (configuration not stated) and print it.
result: 14.9 µM (inactive)

query: Specify GI50 for CCCCCC(O)C1C(=O)OC(C)C(O)/C=C/C=C/C=C/C=C\C=C(\C)C(O)CC(O)CC(O)CC(O)CC(O)CC(O)CC1O (configuration not stated) and stop.
result: > 50 µM (inactive)

query: For the compound COc1cc(S(=O)(=O)Nc2ccc(-c3csc(N4C(=O)CSC4c4ccccc4)n3)cc2)ccc1Cl (configuration not stated) , give its reported GI50.
result: > 100 µM (inactive)

query: Identify GI50 associated with the compound N=C(CC/C(N)=N/O)NO
result: > 100 µM (inactive)

query: Identify the reported GI50 for the following entry. N#C/N=C(/N)c1sc2nc3c(c(-c4ccc(Br)cc4)c2c1N)CCCC3
result: 34.3 µM (inactive)

query: Check the records and state GI50 for NC(=O)C1CCCN1C(=O)C(Cc1c[nH]cn1)NC(=O)C1CCCC1 (configuration not stated)
result: > 100 µM (inactive)
